# System: episomal HPV-16 DNA in W12-20850 cells
# protocol_description: W-12 cellular assay (hybrid capture quantification of episomal HPV-16 DNA)
# Format: cell-based, HPV16
# details: Human papillomavirus 16, W12-20850, 96 h, read-out: W-12
pIC50: −log10 of the molar value. Where a name gives a salt, the structure may show the parent alone.
Assign Y whenever pIC50 does not fall below 6; assign N whenever it does.

- compound: "Cc1ccc2[nH]c3c(c2c1)CCC[C@H]3N[C@@H](C)c1ccccc1 [Example 47, hydrochloride salt]"
  assigned_category: "Y"

Request: Entry CCCNC1CCCc2c1[nH]c1ccccc21 (stereo not shown) [Example 21, hydrochloride salt] : is its pIC50 no less than 6?
Response: N

Request: Entry Brc1cccc2c3c([nH]c12)C(NCc1ccccc1)CCC3 (stereo not shown) [Example 71, hydrochloride] : is its pIC50 no less than 6?
Response: N

Request: Entry c1ccc2c3c([nH]c2c1)C(NC1CCCCC1)CCC3 (stereo not shown) [Example 19, hydrochloride salt] : is its pIC50 no less than 6?
Response: N

Request: Entry Fc1ccc(CNC2CCCc3c2[nH]c2ccc(Br)cc32)cc1 (stereo not shown) [Example 57, hydrochloride] : is its pIC50 no less than 6?
Response: Y

Request: Entry Brc1ccc2c3c([nH]c2c1)C(NCc1ccccc1)CCC3 (stereo not shown) [Example 61, hydrochloride] : is its pIC50 no less than 6?
Response: N

Request: Entry Brc1ccc2[nH]c3c(c2c1)CCC[C@H]3NC1Cc2ccccc2C1 [Example 27, hydrochloride salt] : is its pIC50 no less than 6?
Response: Y

Request: Entry Cc1ccc2[nH]c3c(c2c1)CCC[C@@H]3N[C@H](C)c1ccccc1 [Example 44, hydrochloride salt] : is its pIC50 no less than 6?
Response: N

Request: Entry Brc1ccc2[nH]c3c(c2c1)CCCC3NCc1ccccc1 (stereo not shown) [Example 29, hydrochloride salt] : is its pIC50 no less than 6?
Response: Y

Request: Entry C[C@@H](NC1CCCc2c1[nH]c1ccc([N+](=O)[O-])cc21)c1ccccc1 (stereo partly shown) [Example 49, hydrochloride salt] : is its pIC50 no less than 6?
Response: Y

Data provenance is patent US7622494B2.
